- Test system: Plasmodium falciparum
- measurementNotes: GSK_TCMDC: Inhibition of Plasmodium falciparum 3D7 in whole erythrocytes, using parasite LDH activity as an index of growth.
- Type: functional, organism-based
- conditionsUsed: Plasmodium falciparum, 3D7
endpoint: XC50 (nM)
Value expressed in nM; do not type the unit.

Inquiry: I have this compound here, CC1(CCCCN2CCC(c3c[nH]c4cnccc34)CC2)C(=O)Nc2cccc(Cl)c21 (stereo not drawn) , and I need its recorded XC50.
Reply text: 868

Inquiry: I have this compound here, CN(C)c1ccc(CN2CCC(CNC(=O)c3cc(-c4ccccc4F)cs3)C2)cc1 (stereo not drawn) , and I need its recorded XC50.
Reply text: 911

Inquiry: I have this compound here, `O=C(/C=C/c1ccc(Cl)c(Cl)c1)NCCCCCCN1CCN(C(=O)Nc2cc(F)cc(F)c2)CC1` , and I need its recorded XC50.
Reply text: 1070

Inquiry: I have this compound here, `Nc1cccc(CNCc2cccc(-c3ccc(-c4nc5cc(C(F)(F)F)ccc5[nH]4)cc3)c2)c1` , and I need its recorded XC50.
Reply text: 360

Inquiry: I have this compound here, `O=C(Nc1ccc(Cl)cc1)c1ccc(CN2CCCN(Cc3ccccc3)CC2)cc1` , and I need its recorded XC50.
Reply text: 753

Inquiry: I have this compound here, `CCNc1cc(C(=O)N[C@@H](Cc2ccccc2Cl)[C@H](O)CNC2CCCCC2)cc(N2CCCCS2(=O)=O)c1` , and I need its recorded XC50.
Reply text: 803

Inquiry: I have this compound here, `O=C(NC1CCN(CCN2CCC(c3cn(CCO)c4ccccc34)CC2)CC1)c1ccc(-c2ccc(C(F)(F)F)cc2)cc1` , and I need its recorded XC50.
Reply text: 740

Inquiry: I have this compound here, `Cc1c(C(=O)Nc2cc(Sc3ccc(F)cc3)cc([N+](=O)[O-])c2)sc2ncn(Cc3cccc(F)c3)c(=O)c12` , and I need its recorded XC50.
Reply text: 720

* * *

- Test system: Plasmodium falciparum
- measurementNotes: GSK_TCMDC: Inhibition of Plasmodium falciparum 3D7 in whole erythrocytes, using parasite LDH activity as an index of growth.
- Type: functional, organism-based
- conditionsUsed: Plasmodium falciparum, 3D7
Answer each item with its documented XC50.
Param answer (str): number followed by unit.

Inquiry: XC50 of COc1nc(N)ncc1C(=O)NC1CN2CCC1CC2 (centres undefined) on Plasmodium falciparum?
Reply text: 235 nM

Inquiry: XC50 of `Cc1cccc2nc(-c3cccc(-c4cccc(CNCc5cnn(-c6ccccc6)n5)c4)c3)[nH]c12` on Plasmodium falciparum?
Reply text: 663 nM

Inquiry: XC50 of `Cc1cccc(Nc2nccc(Nc3cccc(C(=O)NCCN4CCOCC4)c3)n2)c1` on Plasmodium falciparum?
Reply text: 1420 nM

Inquiry: XC50 of `CCCNCc1ccc(-c2ccc(CN(CCOC)C(=O)c3ccco3)cc2)nc1` on Plasmodium falciparum?
Reply text: 997 nM

Inquiry: XC50 of `Cc1cc(-c2ccc(NC(=O)N3CCc4cc(Cl)c(N5CCN(C)CC5)cc43)cc2)ccc1C#N` on Plasmodium falciparum?
Reply text: 589 nM

Inquiry: XC50 of `Cc1ccc(C(=O)Nc2cc(S(=O)(=O)N3CCCC3)ccc2OCC(F)(F)F)cc1` on Plasmodium falciparum?
Reply text: 851 nM

Inquiry: XC50 of CCC(ON1C(N)=NC(N)=NC1(C)C)c1ccccc1 (centres undefined) on Plasmodium falciparum?
Reply text: 33.5 nM

Inquiry: XC50 of CC(C)(C)c1ccc(Cn2nc(C(=O)N3CCN(C(=O)C4CCCO4)CC3)c3ccccc32)cc1 (centres undefined) on Plasmodium falciparum?
Reply text: 1320 nM

Inquiry: XC50 of `COc1ccc(-c2csc3nc(C)nc(Cl)c23)cc1OC` on Plasmodium falciparum?
Reply text: 357 nM

Inquiry: XC50 of O=C(Nc1ccc(C(=O)OCC2CCCN3CCCCC23)cc1)c1ccc(Cl)c(Cl)c1 (centres undefined) on Plasmodium falciparum?
Reply text: 721 nM

Inquiry: XC50 of `O=C(Nc1cccc(-c2cccc(-c3nc4cc(C(F)(F)F)ccc4[nH]3)c2)c1)c1cccnc1Cl` on Plasmodium falciparum?
Reply text: 657 nM

Inquiry: XC50 of `CCOC(=O)/C(=N\OC(C)(C)C(=O)NCc1ccc(O)c(O)c1)c1csc(NC(c2ccccc2)(c2ccccc2)c2ccccc2)n1` on Plasmodium falciparum?
Reply text: 170 nM

Inquiry: XC50 of `CCn1cc(C(=O)O)c(=O)c2cc(F)c(N3CCN(S(=O)(=O)c4ccc(N)cc4)CC3)cc21` on Plasmodium falciparum?
Reply text: 922 nM

Inquiry: XC50 of `CC(C)CCN1CCC(Oc2ccc(NC(=O)c3cccs3)cc2Cl)CC1` on Plasmodium falciparum?
Reply text: 341 nM

Inquiry: XC50 of `Cc1c(-c2cccc(Br)c2)[nH]c2nc(N)nc(N)c12` on Plasmodium falciparum?
Reply text: 743 nM

Inquiry: XC50 of NCC(NC(=O)c1ccc(-c2c[nH]c3ncccc23)s1)c1ccccc1 (centres undefined) on Plasmodium falciparum?
Reply text: 546 nM

Inquiry: XC50 of `CCCCCCN1CCC(NCc2ccc(C(F)(F)F)cc2)CC1` on Plasmodium falciparum?
Reply text: 375 nM

Inquiry: XC50 of `O=C(Nc1ccc(-c2ccccc2)cc1)Nc1cccc(Cn2nc(Cl)c(N3CCNCC3)cc2=O)c1` on Plasmodium falciparum?
Reply text: 369 nM

Inquiry: XC50 of `CC(C)(C)c1nn(-c2ccc(Cl)cc2)c2[nH]c(=O)c(CNCc3ccc4c(c3)OCO4)cc12` on Plasmodium falciparum?
Reply text: 810 nM

Inquiry: XC50 of `CN(C)c1ccc(CN2CCC(NC(=O)c3ccc(-c4ccccc4Cl)s3)CC2)cc1` on Plasmodium falciparum?
Reply text: 899 nM

Inquiry: XC50 of `COc1ccc2nccc([C@@H](O)CN3CCC(NCCOc4ccccc4C#N)CC3)c2c1` on Plasmodium falciparum?
Reply text: 398 nM

Inquiry: XC50 of `CCC[C@@H]1CCN[C@H]([C@H](O)c2ccnc3ccc(OC)cc23)C1` on Plasmodium falciparum?
Reply text: 726 nM

Inquiry: XC50 of C=CCOC(=O)N1CCC(CNCc2cccc(-c3ccc(-c4nc5cccc(C)c5[nH]4)cc3)c2)C1 (centres undefined) on Plasmodium falciparum?
Reply text: 251 nM

Inquiry: XC50 of `CN1CCC(N2CCN(Cc3ccc(-c4ccc(-c5nc6ccccc6[nH]5)s4)cc3)CC2)CC1` on Plasmodium falciparum?
Reply text: 140 nM

Inquiry: XC50 of OC(CNc1ccnc(Nc2cccc(Cl)c2)n1)c1ccccc1C(F)(F)F (centres undefined) on Plasmodium falciparum?
Reply text: 902 nM

Inquiry: XC50 of `O=C(c1ccccc1)N(Cc1ccccc1-c1ccc(CNCCc2ccccc2)cc1)C1CCN(Cc2ccccc2)CC1` on Plasmodium falciparum?
Reply text: 995 nM

Inquiry: XC50 of O=c1ccccn1CCCC1CCCCN1 (centres undefined) on Plasmodium falciparum?
Reply text: 809 nM

Inquiry: XC50 of `CC(C)c1ccc(NC(=O)c2ccc(C(=O)NC3CCN(Cc4ccccc4)CC3)cc2)cc1` on Plasmodium falciparum?
Reply text: 982 nM

Inquiry: XC50 of `Cc1cc(C(F)(F)F)n2nc(C(=O)N(C)Cc3cncn3Cc3ccc(F)cc3)cc2n1` on Plasmodium falciparum?
Reply text: 832 nM

Inquiry: XC50 of `O=C(CNc1ccc(Cl)c(S(=O)(=O)N2CCCC2)c1)Nc1ccc(Br)cc1F` on Plasmodium falciparum?
Reply text: 321 nM

Inquiry: XC50 of `N=C(N)NC(=O)Nc1ccc([N+](=O)[O-])c(Cl)c1` on Plasmodium falciparum?
Reply text: 880 nM

Inquiry: XC50 of Cc1ccc(C2(C)CC(C)(C)N(C(=O)COc3ccc4ccccc4c3)c3ccccc32)cc1 (centres undefined) on Plasmodium falciparum?
Reply text: 113 nM

Inquiry: XC50 of `Nc1nc(N)c2c(Oc3cc(Cl)c(Cl)c(Cl)c3)cccc2n1` on Plasmodium falciparum?
Reply text: 804 nM

Inquiry: XC50 of `COc1cccc(-c2ccc3c(-c4cccc(NC(C)=O)c4)cnc(N)c3c2)c1` on Plasmodium falciparum?
Reply text: 106 nM

Inquiry: XC50 of `CN(C)CCNCc1ccc(-c2ccc(-c3nc4ccccc4[nH]3)s2)cc1` on Plasmodium falciparum?
Reply text: 569 nM

Inquiry: XC50 of `CC(C)(C)c1ccc(CNC(=O)COc2ccc(-c3nnc(-c4cccc([N+](=O)[O-])c4)o3)cc2[N+](=O)[O-])cc1` on Plasmodium falciparum?
Reply text: 926 nM

Inquiry: XC50 of `Cc1cccc2nc(-c3ccc(-c4cccc(CN5CCN(CCO)CC5)c4)cc3)[nH]c12` on Plasmodium falciparum?
Reply text: 730 nM

Inquiry: XC50 of CCC(C)CN1CCC(N(C)c2cc(NC(=O)c3cccc(C)c3)ccn2)CC1 (centres undefined) on Plasmodium falciparum?
Reply text: 937 nM

Inquiry: XC50 of `COc1ccc2nccc([C@@H](O)CN3CCC(NCc4cn5cc(F)ccc5n4)CC3)c2c1` on Plasmodium falciparum?
Reply text: 784 nM
